tested on: Staphylococcus aureus USA300 LAC strain (CA-MRSA); format: in vivo; conditions: female BALB/c mice, USA300 LAC retro-orbital, single dose 7 mg/kg intraperitoneally 1 h after infection, after 10 days
Provide the recorded survival rate for the entries that follow.
Numbers only, in %.

The examples below pair each entry with its known result.
CN[C@H](CC(C)C)C(=O)N[C@H]1C(=O)N[C@@H](CC(N)=O)C(=O)N[C@H]2C(=O)N[C@@H]3C(=O)N[C@H](C(=O)N[C@H](C(=O)O)c4cc(O)c(CNC5C(O)OC(CO)[C@H](O)[C@@H]5O)c(O)c4-c4cc3ccc4O)[C@H](O)c3ccc(c(Cl)c3)Oc3cc2cc(c3O[C@@H]2O[C@H](CO)C(O)C(O)[C@H]2O[C@H]2CC(C)(NCc3ccc(-c4ccc(Cl)cc4)cc3)[C@H](O)[C@H](C)O2)Oc2ccc(cc2Cl)[C@H]1O (stereo partly shown) : 93.3
CN[C@H](CC(C)C)C(=O)N[C@H]1C(=O)N[C@@H](CC(N)=O)C(=O)N[C@H]2C(=O)N[C@H]3C(=O)N[C@H](C(=O)N[C@H](C(=O)O)c4cc(O)c(CNCCO[C@@H]5OC(CO)[C@H](O)C(O)C5O)c(O)c4-c4cc3ccc4O)[C@H](O)c3ccc(c(Cl)c3)Oc3cc2cc(c3OC2O[C@H](CO)C(O)C(O)[C@H]2O[C@@H]2CC(C)[C@@H](O)C(C)(NCc3ccc(-c4ccc(C(F)(F)F)cc4)cc3)C2)Oc2ccc(cc2Cl)[C@H]1O (stereo partly shown) : 86.6
CN[C@H](CC(C)C)C(=O)N[C@H]1C(=O)N[C@@H](CC(N)=O)C(=O)N[C@H]2C(=O)N[C@@H]3C(=O)N[C@H](C(=O)N[C@H](C(=O)O)c4cc(O)c(CNC5C(O)OC(CO)[C@H](O)[C@@H]5O)c(O)c4-c4cc3ccc4O)[C@H](O)c3ccc(c(Cl)c3)Oc3cc2cc(c3O[C@@H]2O[C@H](CO)C(O)C(O)[C@H]2O[C@H]2CC(C)(NCc3ccc(-c4ccc(C(F)(F)F)cc4)cc3)[C@H](O)[C@H](C)O2)Oc2ccc(cc2Cl)[C@H]1O (stereo partly shown) : 73.3

// next entry
Look at this compound and give its reported survival rate. CN[C@H](CC(C)C)C(=O)N[C@H]1C(=O)N[C@@H](CC(N)=O)C(=O)N[C@H]2C(=O)N[C@H]3C(=O)N[C@H](C(=O)N[C@H](C(=O)O)c4cc(O)c(CNCCCNC(=O)[C@H](O)[C@@H](O)[C@H](O)[C@H](O)CO)c(O)c4-c4cc3ccc4O)[C@H](O)c3ccc(c(Cl)c3)Oc3cc2cc(c3OC2O[C@H](CO)C(O)C(O)[C@H]2O[C@@H]2CC(C)[C@@H](O)C(C)(NCc3ccc(-c4ccc(C(F)(F)F)cc4)cc3)C2)Oc2ccc(cc2Cl)[C@H]1O (stereo partly shown)
60.0
